systemUnderTest: EPHB2 (UniProt P29323)
Sequence (P29323 whole entry, looked up): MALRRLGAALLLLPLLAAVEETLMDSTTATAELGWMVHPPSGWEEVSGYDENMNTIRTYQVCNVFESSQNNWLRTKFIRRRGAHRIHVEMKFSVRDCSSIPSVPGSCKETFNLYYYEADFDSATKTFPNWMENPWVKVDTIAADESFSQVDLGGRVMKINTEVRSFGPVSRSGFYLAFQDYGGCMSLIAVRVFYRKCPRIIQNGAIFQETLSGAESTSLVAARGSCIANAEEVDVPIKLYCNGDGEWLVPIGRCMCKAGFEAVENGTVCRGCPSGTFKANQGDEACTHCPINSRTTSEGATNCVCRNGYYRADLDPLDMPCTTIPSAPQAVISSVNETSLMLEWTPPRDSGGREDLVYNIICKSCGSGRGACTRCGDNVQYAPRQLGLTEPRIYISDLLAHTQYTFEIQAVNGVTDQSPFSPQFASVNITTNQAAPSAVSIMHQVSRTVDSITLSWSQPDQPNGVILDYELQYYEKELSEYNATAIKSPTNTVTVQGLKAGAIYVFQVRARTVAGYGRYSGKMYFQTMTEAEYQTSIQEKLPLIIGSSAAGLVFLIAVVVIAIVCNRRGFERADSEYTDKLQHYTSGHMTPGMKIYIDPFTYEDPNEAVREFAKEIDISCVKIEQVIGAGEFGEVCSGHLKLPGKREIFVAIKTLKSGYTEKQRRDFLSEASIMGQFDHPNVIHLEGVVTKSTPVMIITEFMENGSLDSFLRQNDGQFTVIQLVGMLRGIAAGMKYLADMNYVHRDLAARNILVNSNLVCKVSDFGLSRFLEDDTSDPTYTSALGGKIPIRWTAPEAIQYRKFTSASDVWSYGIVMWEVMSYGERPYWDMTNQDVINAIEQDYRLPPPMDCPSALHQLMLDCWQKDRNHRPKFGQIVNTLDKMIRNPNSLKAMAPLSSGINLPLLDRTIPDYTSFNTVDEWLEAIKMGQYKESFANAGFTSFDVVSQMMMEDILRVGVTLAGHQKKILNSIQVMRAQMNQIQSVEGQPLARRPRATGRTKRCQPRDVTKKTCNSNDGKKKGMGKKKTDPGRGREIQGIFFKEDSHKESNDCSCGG
assaySummary: phosphorylation enrichment, bacterial display (enrichment ratio); higher = better substrate or ligand; peptides without Tyr show the background;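 further: 11-residue human phosphosite peptides and single-mutation variants displayed on the E. coli surface, counted by deep sequencing, each peptide's frequency after selection divided by its frequency in the unselected input library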;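 further: frequency after pTyr selection over input frequency; kinase dosed for 20-30% of maximal phosphorylation in three min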
Given measured phosphorylation enrichment, output class 1 if it is greater than or equal to 0.8 and class 0 if not.

Is it the case that LAAPKYKLNVD [SMARCA2_Y1190_A1188P] has phosphorylation enrichment reaching or exceeding 0.8?
class 0

Is it the case that QISQDYGVLLE [PRDX3_Y172_R170Q] has phosphorylation enrichment reaching or exceeding 0.8?
class 1

Is it the case that KTKIGYSPLHQ [ANK1_Y735_L733I] has phosphorylation enrichment reaching or exceeding 0.8?
class 0

Is it the case that SNNYIYTTLGV [FAM83B_Y639_K640T] has phosphorylation enrichment reaching or exceeding 0.8?
class 1

Is it the case that LKGQVYILGWE [ASS1_Y359_R363W] has phosphorylation enrichment reaching or exceeding 0.8?
class 0

Is it the case that FSQQVYRVNLS [FAT4_Y480] has phosphorylation enrichment reaching or exceeding 0.8?
class 0

Is it the case that NREGVYTVFAP [TGFBI_Y537] has phosphorylation enrichment reaching or exceeding 0.8?
class 1

Is it the case that TWSRSYRSDRL [CRYBB1_Y131_S129R] has phosphorylation enrichment reaching or exceeding 0.8?
class 0

Is it the case that AGRTGYDNREI [BCL2_Y9] has phosphorylation enrichment reaching or exceeding 0.8?
class 0

Is it the case that VGSEDYGWDLT [SPTAN1_Y1792_R1794W] has phosphorylation enrichment reaching or exceeding 0.8?
class 0

Is it the case that HKLSSYEFDFE [BTK_Y40_Y39S_YF] has phosphorylation enrichment reaching or exceeding 0.8?
class 0

Is it the case that PIGRKYKKVRF [F8_Y442_R437P] has phosphorylation enrichment reaching or exceeding 0.8?
class 0

Is it the case that SARFHYLMAEK [LDHB_Y173_R172H] has phosphorylation enrichment reaching or exceeding 0.8?
class 0

Is it the case that WISNRSLDFSS [PRPH2_Y184_Y184S] has phosphorylation enrichment reaching or exceeding 0.8?
class 0

Is it the case that SYTDPYAQPSL [KMT2D_Y2378_P2382S] has phosphorylation enrichment reaching or exceeding 0.8?
class 0

Is it the case that LDVGEYCVPRG [BEX1_Y43_A40V] has phosphorylation enrichment reaching or exceeding 0.8?
class 1

Is it the case that FGGLRYGFGVL [KRTAP20-2_Y13_YF] has phosphorylation enrichment reaching or exceeding 0.8?
class 0

Is it the case that LVRPPYSYSAL [FOXI1_Y126] has phosphorylation enrichment reaching or exceeding 0.8?
class 0

Is it the case that HRGFLYLAIEY [TEK_Y899_Y897F] has phosphorylation enrichment reaching or exceeding 0.8?
class 0

Is it the case that QNTGDYCDLYG [PTPN11_Y62_Y63C] has phosphorylation enrichment reaching or exceeding 0.8?
class 1

Is it the case that GRLFAYPDTHR [CAT_Y358] has phosphorylation enrichment reaching or exceeding 0.8?
class 0

Is it the case that MTYMFYRENLR [NLRP14_Y443_V441M] has phosphorylation enrichment reaching or exceeding 0.8?
class 1

Is it the case that QPGTDYKIYLY [FN1_Y1970] has phosphorylation enrichment reaching or exceeding 0.8?
class 0

Is it the case that TEIGQYGNGLK [MORC2_Y100_Q96E] has phosphorylation enrichment reaching or exceeding 0.8?
class 0

Is it the case that EKQARYEIVEE [CDH5_Y223_V227E] has phosphorylation enrichment reaching or exceeding 0.8?
class 0

Is it the case that ATYRGYDSDNP [MMUT_Y146_H143Y] has phosphorylation enrichment reaching or exceeding 0.8?
class 0

Is it the case that QEMMEYRRQIQ [DES_Y324_H326R] has phosphorylation enrichment reaching or exceeding 0.8?
class 0

Is it the case that GLCSYYETSKM [MAGED2_Y449_R446C] has phosphorylation enrichment reaching or exceeding 0.8?
class 1

Is it the case that IDPYIYTPFGS [CYP3A4_Y432] has phosphorylation enrichment reaching or exceeding 0.8?
class 0

Is it the case that PFGQWYESHFA [RPS8_Y113_R110G_YF] has phosphorylation enrichment reaching or exceeding 0.8?
class 1

Is it the case that KTVQDYLEKFY [MMP8_Y36] has phosphorylation enrichment reaching or exceeding 0.8?
class 0

Is it the case that TAGFSYEKWEI [TEC_Y360] has phosphorylation enrichment reaching or exceeding 0.8?
class 0

Is it the case that QISRDYGVLLE [PRDX3_Y172] has phosphorylation enrichment reaching or exceeding 0.8?
class 0

Is it the case that VHSGTYQVMVR [MYBPC3_Y1043_T1046M] has phosphorylation enrichment reaching or exceeding 0.8?
class 0

Is it the case that EARRVYGDIIY [ALDH5A1_Y175_H180Y] has phosphorylation enrichment reaching or exceeding 0.8?
class 0

Is it the case that FSDPSYVKQME [CDC5L_Y464_YF] has phosphorylation enrichment reaching or exceeding 0.8?
class 0

Is it the case that SHNKFYMLVAH [MFSD8_Y134_R139H_YF] has phosphorylation enrichment reaching or exceeding 0.8?
class 0

Is it the case that TDGIAYEFRVT has phosphorylation enrichment reaching or exceeding 0.8?
class 0

Is it the case that RALCHYFKLNI [ETV6_Y401_R399C_YF] has phosphorylation enrichment reaching or exceeding 0.8?
class 1

// provenance: the supplement of paper PMC10065799
